Tested on: Inhibin beta A chain (activin A)
experiment.notes: small molecules binding activin A – biochemical, small-molecule microarray, 635 nm fluorescence scan, primary screen (AID 1107);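 note: mouse activin A protein probed at 4.33 µg/mL on printed slides; score merges bound-protein fluorescence near 667 nm with spot signal-to-noise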
condition.details: INHBA, higher = more signal
Class definitions on composite z-score: L = under 0.2, M = from 0.2 up to 1, H = 1 and over

Field: example entries. Status: answers known.
compound	discrete.label
COc1ccccc1CN1C(=O)c2ccccc2[C@@]2(Cc3ccccc3N(CCCN(C)C)C2=O)[C@@H]1c1ccc(CO)cc1	H
COc1ccc([Si](C)(C)[C@@H]2[C@@H](CCO)O[C@]3(C(=O)N(Cc4cccc(N5CCOC5=O)c4)c4ccccc43)[C@H]2C)cc1	M
COc1ccc(C(O)C2C=CC3C(=O)N(C)C(=O)C3N2N(c2ccccc2)c2ccccc2)c2ccccc12 (stereo not given)	H
O=C1NC(=O)C2C1C=CC(C(O)c1ccc(-c3ccccc3)s1)N2Nc1ccc(Cl)cc1Cl (stereo not given)	M
[N-]=[N+]=Nc1ccccc1C[C@]1(C(=O)NCc2ccccc2)N=C(c2ccc(OCCCO)cc2)O[C@H]1c1ccccc1N=[N+]=[N-]	H

Ask | The entry to classify is CCCCCCc1nc(-c2ccc(-c3ccc(Cl)c(Cl)c3)o2)cc2c1[Si](C(C)C)(C(C)C)O[C@H]2c1ccccc1 ; which class holds it?
Reply | M

Ask | # classify by composite z-score band: COc1cc2c(cc1O)C=[N+](Cc1cc3c(cc1Br)OCO3)CC2
Reply | M

Ask | # bin lookup: classify O=C1O[C@@H](c2ccccc2)[C@@H](c2ccccc2)N2[C@@H](c3ccccc3OCCO)[C@]3(C(=O)Nc4ccccc43)[C@@H](C(=O)O)[C@H]12 by its composite z-score
Reply | L

Ask | Which composite z-score band matches CC(C)N1CC=CC23O[C@@H]4C=CCOC(=O)[C@@H]4[C@H]2C(=O)N(CCCCCO)[C@@H]3C1=O (stereo not given in full) ?
Reply | M

Ask | Form field 'band' for C=CCC(OC(C)=O)[C@@H]1[C@@H](N(Cc2cc3ccccc3o2)C(=O)Cc2ccc(OC)cc2)c2cc(OCCCO)ccc2N1C(=O)c1ccc2ccccc2c1 (stereo not given in full)
Reply | H

Ask | Could you tell me which band C=C(CCCC)/C(=C/C[C@@H](OC(C)=O)c1ccccc1OCCO)c1cc(C(=O)OC)ccc1OC belongs to?
Reply | M

Ask | Class for CCCNC(=O)[C@@H]1c2ccccc2C(=O)N(Cc2ccccc2OC)[C@H]1c1ccc(CO)cc1 ?
Reply | L

Ask | Just checking, what class would you give C#CCNCc1ccccc1 here?
Reply | M

Ask | Which category fits this record: COC(=O)[C@@]1(Cc2ccc(OC)cc2)[C@H]2c3cc(C(=O)N4CCCC4)n(Cc4nc5ccccc5[nH]4)c3C[C@H]2CN1C(=O)c1ccccc1
Reply | H

Ask | Note: place this compound into its band. Item: C=CCN1C(=O)[C@]2(Cc3ccccc3)N=C(c3ccc(OCCCO)cc3)O[C@@H]2c2ccccc21
Reply | H

Ask | Assign a bin to COC(=O)c1c2oc(c1C(=O)OC)C(=O)N[C@@H](C(C)C)Cn1cc(nn1)C1(CCCCC1)NC(=O)N[C@H](CO)CC2
Reply | L
